Tested on: Human betaherpesvirus 5
test: Antiviral activity against HCMV Davis in HEL cells assessed as reduction of virus plaque formation after 5 days
Format: functional, organism-based
particulars: Human betaherpesvirus 5, Davis, 120 h
measured property: EC50 (mg/L)

COc1cccc(-c2cc(C)c3ncc(CSCCc4ccccc4)n3c2)c1; 2.5
Cc1cc(-c2ccc(C#N)cc2)cn2c(CSCCc3ccccc3)cnc12; 2.5
Cc1cc(I)c2ncc(CSCCc3ccccc3)n2c1; 1.8
COc1ccc(-c2cc(C)c3ncc(CSCCc4ccccc4)n3c2)cc1; 2.2
Cc1cc(-c2ccsc2)c2ncc(CSCCc3ccccc3)n2c1; 2.5

I: COc1ccc(-c2cc(C)cn3c(CSCCc4ccccc4)cnc23)cc1
II: Cc1cc(-c2cccc([N+](=O)[O-])c2)cn2c(CSCCc3ccccc3)cnc12
Sorting ascending by EC50, which comes first: I or II ? Record your answer as the label of the chosen record.
I
(I: 2.2 mg/L, II: 4 mg/L)

###

Test system: Human betaherpesvirus 5
test: Antiviral activity against HCMV Davis in HEL cells assessed as reduction of virus plaque formation after 5 days
Format: functional, organism-based
particulars: Human betaherpesvirus 5, Davis, 120 h
measured property: EC50 (µg/mL)

Cc1cc(I)cn2c(CSCCc3ccccc3)cnc12; 0.12

P: Cc1cc(-c2cccs2)c2ncc(CSCCc3ccccc3)n2c1
Q: Cc1cc(Br)cn2c(CSCCc3ccccc3)cnc12
Quick one: lower EC50, P or Q ? Your answer should be the label of the entry you select.
Q

###

Parameter: MCC at 72 h. Scope: all listed entries.
test: Cytotoxicity against HEL cells assessed as alteration in cell morphology after 3 days
Type: cell-based
particulars: human
The response must be a number in µg/mL with no trailing unit.

Examples with answers:
Cc1cc(-c2ccccc2)cn2c(CSCCc3ccccc3)cnc12; 20
Nc1nc2c(ncn2COC(CO)CO)c(=O)[nH]1 [GANCICLOVIR]; 100
Cc1cc(-c2cccc(F)c2)c2ncc(CSCCc3ccccc3)n2c1; 20
c1ccc(CCSCc2cnc3ccc(-c4ccccc4)cn23)cc1; 4
Cc1cc(-c2cccc([N+](=O)[O-])c2)c2ncc(CSCCc3ccccc3)n2c1; 100
COc1cccc(-c2cc(C)c3ncc(CSCCc4ccccc4)n3c2)c1; 20

Alright, here's another compound for you.
I would be grateful if you could share the reported MCC at 72 h for "COc1ccc(-c2cc(C)cn3c(CSCCc4ccccc4)cnc23)cc1" .
20

###

test: Cytotoxicity against HEL cells assessed as alteration in cell morphology after 3 days
Format: cell-based
particulars: human
Below, each entry is listed with its recorded MCC at 72 h.
Write the value in µg/mL as a bare number.

State the recorded MCC at 72 h for this entry: "COc1ccc(-c2cc(C)c3ncc(CSCCc4ccccc4)n3c2)cc1"
20

###

test: Cytotoxicity against HEL cells assessed as reduction of cell growth after 3 days
Format: cell-based
particulars: human
Listed here are compounds together with their documented CC50 at 72 h.
Unit µg/mL implied. Number only.

Quick one: CC50 at 72 h of "Cc1cc(-c2ccccc2)cn2c(CSCCc3ccccc3)cnc12" ?
31

Need CC50 at 72 h, item "Cc1cc(-c2cccc(O)c2)cn2c(CSCCc3ccccc3)cnc12"
50

###

Tested on: Human betaherpesvirus 5
test: Antiviral activity against HCMV AD169 in HEL cells assessed as reduction of virus plaque formation after 5 days
Assay type: functional, organism-based
particulars: Human betaherpesvirus 5, AD169, HEL, 120 h
measured property: EC50 (mg/L)

Cc1cc(-c2ccsc2)c2ncc(CSCCc3ccccc3)n2c1; 2.5
Nc1ccn(C[C@@H](CO)OCP(=O)(O)O)c(=O)n1.O.O [CIDOFOVIR]; 0.1
Cc1cc(-c2cccs2)cn2c(CSCCc3ccccc3)cnc12; 2.2

A: COc1ccc(-c2cc(C)cn3c(CSCCc4ccccc4)cnc23)cc1
B: Cc1cc(-c2cccc([N+](=O)[O-])c2)cn2c(CSCCc3ccccc3)cnc12
Between the entries labelled A and B , which has a larger EC50 value on record? // caller expects the label of the chosen entry
B

P: Cc1cc(-c2ccccc2)cn2c(CSCCc3ccccc3)cnc12
Q: Cc1cc(Br)cn2c(CSCCc3ccccc3)cnc12
Please compare: P and Q . Report which one has the smaller EC50 value. Your answer should be the label of the entry you select.
Q
(Q: 0.32 mg/L, P: 2 mg/L)

P: Cc1cc(-c2cccc(F)c2)c2ncc(CSCCc3ccccc3)n2c1
Q: COc1cccc(-c2cc(C)cn3c(CSCCc4ccccc4)cnc23)c1
When P and Q are compared, which has the higher number for EC50? Give the label of your selection.
Q

###

test: Cytotoxicity against HEL cells assessed as alteration in cell morphology after 3 days
Format: cell-based
particulars: human
measured property: MCC at 72 h (µg/mL)
Provide only the numeric value, understood in µg/mL.

Cc1cc(-c2cccs2)c2ncc(CSCCc3ccccc3)n2c1; 100
Cc1cc(-c2cccc(O)c2)cn2c(CSCCc3ccccc3)cnc12; 20
Cc1cc(-c2cccc(O)c2)c2ncc(CSCCc3ccccc3)n2c1; 20

// moving on: another record for MCC at 72 h
What MCC at 72 h value was documented for this compound, "Cc1cc(-c2ccsc2)c2ncc(CSCCc3ccccc3)n2c1" ?
100

###

test: Cytotoxicity against HEL cells assessed as reduction of cell growth after 3 days
Type: cell-based
particulars: human
measured property: CC50 at 72 h (µg/mL)
Quick reminder: number only, in µg/mL, skip the unit.

Reference set, count: 10
Cc1cc(-c2ccc(C#N)cc2)cn2c(CSCCc3ccccc3)cnc12; 10.6
Cc1cc(-c2cccc(O)c2)c2ncc(CSCCc3ccccc3)n2c1; 11.4
Cc1cc(-c2cccc([N+](=O)[O-])c2)c2ncc(CSCCc3ccccc3)n2c1; 47
Cc1cc(-c2cccc(F)c2)c2ncc(CSCCc3ccccc3)n2c1; 35
COc1ccc(-c2cc(C)c3ncc(CSCCc4ccccc4)n3c2)cc1; 25.8
Cc1cc(-c2ccc(O)cc2)c2ncc(CSCCc3ccccc3)n2c1; 13.7
COc1cccc(-c2cc(C)c3ncc(CSCCc4ccccc4)n3c2)c1; 36
Cc1cc(-c2ccccc2)c2ncc(CSCCc3ccccc3)n2c1; 33
Cc1cc(Br)cn2c(CSCCc3ccccc3)cnc12; 28
c1ccc(CCSCc2cnc3ccc(-c4ccccc4)cn23)cc1; 9.9

# CC50 at 72 h lookup, item Nc1nc2c(ncn2COC(CO)CO)c(=O)[nH]1 [GANCICLOVIR]
146

Entry under review: "Cc1cc(-c2cccc([N+](=O)[O-])c2)cn2c(CSCCc3ccccc3)cnc12" . Reported CC50 at 72 h?
43

###

System: Human alphaherpesvirus 3
test: Antiviral activity against TK- VZV 07/1 in HEL cells assessed as reduction of virus plaque formation
Format: functional, organism-based
particulars: Human alphaherpesvirus 3, 07/1, HEL
measured property: EC50 (µg/mL)

Consider the reported EC50 for these molecules:
Cc1cc(-c2cccc(O)c2)cn2c(CSCCc3ccccc3)cnc12; 3.7
Cc1cc(-c2ccc(O)cc2)c2ncc(CSCCc3ccccc3)n2c1; 2.7
Cc1cc(Br)cn2c(CSCCc3ccccc3)cnc12; 1.1
Cc1cc(-c2ccc(C#N)cc2)cn2c(CSCCc3ccccc3)cnc12; 2
Cc1cc(I)c2ncc(CSCCc3ccccc3)n2c1; 2.6
Cc1cc(-c2cccc(C#N)c2)cn2c(CSCCc3ccccc3)cnc12; 81
COc1cccc(-c2cc(C)cn3c(CSCCc4ccccc4)cnc23)c1; 10.3
COc1ccc(-c2cc(C)cn3c(CSCCc4ccccc4)cnc23)cc1; 3.1
Cc1cc(-c2ccsc2)cn2c(CSCCc3ccccc3)cnc12; 1.8
Cc1cc(-c2ccsc2)c2ncc(CSCCc3ccccc3)n2c1; 8.6

P: Cc1cc(-c2cccc([N+](=O)[O-])c2)cn2c(CSCCc3ccccc3)cnc12
Q: Cc1cc(I)cn2c(CSCCc3ccccc3)cnc12
Of the pair P and Q , name the member with the lesser recorded EC50. # answer = label of selected item
Q

###

Tested on: Human betaherpesvirus 5
test: Antiviral activity against HCMV Davis in HEL cells assessed as reduction of virus plaque formation after 5 days
Type: functional, organism-based
particulars: Human betaherpesvirus 5, Davis, 120 h
measured property: EC50

What does the record list as EC50 for "Cc1cc(-c2cccc([N+](=O)[O-])c2)c2ncc(CSCCc3ccccc3)n2c1" ?
> 100 µg/mL

Need EC50, item "Cc1cc(-c2cccc(O)c2)c2ncc(CSCCc3ccccc3)n2c1"
> 4 µg/mL

Fill blank: measured EC50 of the compound "Cc1cc(-c2ccccc2O)cn2c(CSCCc3ccccc3)cnc12" is ____.
> 100 µg/mL

###

Test system: Human betaherpesvirus 5
test: Antiviral activity against HCMV Davis in HEL cells assessed as reduction of virus plaque formation after 5 days
Format: functional, organism-based
particulars: Human betaherpesvirus 5, Davis, 120 h
measured property: EC50

c1ccc(CCSCc2cnc3ccc(-c4ccccc4)cn23)cc1; > 0.8 mg/L
Cc1cc(-c2ccc(O)cc2)cn2c(CSCCc3ccccc3)cnc12; > 100 mg/L
Cc1cc(-c2cccc(F)c2)c2ncc(CSCCc3ccccc3)n2c1; 2.2 mg/L

Given "Cc1cc(-c2ccccc2)c2ncc(CSCCc3ccccc3)n2c1" , state its recorded EC50.
> 4 mg/L
